The reported numbers originate from PubChem BioAssay AID628.

- Experimental target: Muscarinic acetylcholine receptor M1 (Rattus norvegicus) (UniProt P08482)
- Sequence (P08482 whole entry, looked up): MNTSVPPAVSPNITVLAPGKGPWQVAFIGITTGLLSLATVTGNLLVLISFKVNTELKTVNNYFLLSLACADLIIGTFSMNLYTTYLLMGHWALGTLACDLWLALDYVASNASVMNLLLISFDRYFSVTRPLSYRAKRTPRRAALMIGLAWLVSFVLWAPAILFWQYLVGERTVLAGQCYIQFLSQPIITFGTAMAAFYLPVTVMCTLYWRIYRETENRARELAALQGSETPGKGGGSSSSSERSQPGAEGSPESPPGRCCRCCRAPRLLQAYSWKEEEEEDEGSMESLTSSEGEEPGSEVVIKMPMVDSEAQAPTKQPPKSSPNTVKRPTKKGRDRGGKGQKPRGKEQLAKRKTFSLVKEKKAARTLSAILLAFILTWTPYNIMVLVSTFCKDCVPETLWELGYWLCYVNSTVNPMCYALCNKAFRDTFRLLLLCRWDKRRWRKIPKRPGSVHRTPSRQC
- Procedure text: antagonists of rat M1 muscarinic receptor (AID 628)
- Conditions: CHO-M1 cells, Fluo-4 calcium, ACh EC80 antagonist mode; at 10 µM; stronger effect = lower value
The whole screen tested about 64,000 compounds, of which about 2,200 (3.4%) were called active. For the sample, actives were picked, then their nearest neighbours and some compounds at random.
Here the recorded B-score is given for each entry.
// return a plain number; no unit text

Sample CSC1=NCCN1C(=O)c1ccc(S(=O)(=O)N2CCOCC2)cc1 — what was its B-score? -0.648

Sample O=C(c1ccc(S(=O)(=O)N2CCOCC2)cc1)N1CCN(c2ccccc2)CC1 — what was its B-score? -2.93
